molecular target: human alpha-7 nAChR (Homo sapiens, UniProt P36544); construct: expressed in transfected cells; host or cells: Xenopus laevis oocytes (cRNA injection); assay: Two-electrode voltage clamp of alpha-7 nAChR expressed in Xenopus oocytes (net charge); assay type: cell-based; details: compound together with choline or ACh; includes PAM and ago-PAM activity; area under the curve of current vs. time
Sequence (P36544 23-502): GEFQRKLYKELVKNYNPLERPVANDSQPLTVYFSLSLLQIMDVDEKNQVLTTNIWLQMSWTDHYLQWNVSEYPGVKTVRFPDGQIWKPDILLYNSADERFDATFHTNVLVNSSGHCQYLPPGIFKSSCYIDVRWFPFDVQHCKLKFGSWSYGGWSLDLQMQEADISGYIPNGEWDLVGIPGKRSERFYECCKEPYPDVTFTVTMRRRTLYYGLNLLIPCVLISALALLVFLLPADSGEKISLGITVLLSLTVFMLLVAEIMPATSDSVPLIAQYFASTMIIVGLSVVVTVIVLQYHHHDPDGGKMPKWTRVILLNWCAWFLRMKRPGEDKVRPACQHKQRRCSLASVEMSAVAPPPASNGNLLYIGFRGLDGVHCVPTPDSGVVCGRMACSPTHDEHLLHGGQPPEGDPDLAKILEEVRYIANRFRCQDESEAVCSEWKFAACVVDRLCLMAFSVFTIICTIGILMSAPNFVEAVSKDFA
attribute.measured: Charge +C

CC(=O)NS(=O)(=O)c1ccc2c(c1)[C@H]1C=CC[C@H]1[C@@H](c1ccc(Br)cc1)N2 (stereo in doubt); Inactive
CCCNS(=O)(=O)c1ccc2c(c1)[C@H]1C=CC[C@H]1[C@@H](c1ccc(Br)cc1)N2 (stereo in doubt); Inactive
NS(=O)(=O)c1cccc2c1N[C@H](c1ccc(Br)cc1)[C@@H]1CC=C[C@H]21 (stereo in doubt); Inactive
